The measurements presented in this section are drawn from patent US9012628B2.

Experiment: Comparative tests for stability of the crystalline form E and other crystalline forms (storage, total impurity and content)
Assay type: physicochemical
Settings: Freezing −20° C., month 0
assayMetric: Content (%)

C[C@@H](O)[C@H]1C(=O)N2C(C(=O)[O-])=C(S[C@@H]3CN[C@H](C(=O)Nc4cccc(C(=O)O)c4)C3)[C@H](C)[C@H]12.[Na+] [Amorphous, ertapenem sodium] | 98.5
C[C@@H](O)[C@H]1C(=O)N2C(C(=O)[O-])=C(S[C@@H]3CN[C@H](C(=O)Nc4cccc(C(=O)O)c4)C3)[C@H](C)[C@H]12.[Na+] (relative stereo) [Crystalline form E] | 99.1
C[C@@H](O)[C@H]1C(=O)N2C(C(=O)[O-])=C(S[C@@H]3CN[C@H](C(=O)Nc4cccc(C(=O)O)c4)C3)[C@H](C)[C@H]12.[Na+] [Crystalline form C, ertapenem sodium] | 99.2
C[C@@H](O)[C@H]1C(=O)N2C(C(=O)[O-])=C(S[C@@H]3CN[C@H](C(=O)Nc4cccc(C(=O)O)c4)C3)[C@H](C)[C@H]12.[Na+] [Crystalline form D, ertapenem sodium] | 98.8
C[C@@H](O)[C@H]1C(=O)N2C(C(=O)[O-])=C(S[C@@H]3CN[C@H](C(=O)Nc4cccc(C(=O)O)c4)C3)[C@H](C)[C@H]12.[Na+] [Crystalline form B, ertapenem sodium] | 99.1
C[C@@H](O)[C@H]1C(=O)N2C(C(=O)[O-])=C(S[C@@H]3CN[C@H](C(=O)Nc4cccc(C(=O)O)c4)C3)[C@H](C)[C@H]12.[Na+] [Crystalline form A, ertapenem sodium] | 99.2
